# Tgt: UniProt:P35354
# Sequence (P35354 18-604): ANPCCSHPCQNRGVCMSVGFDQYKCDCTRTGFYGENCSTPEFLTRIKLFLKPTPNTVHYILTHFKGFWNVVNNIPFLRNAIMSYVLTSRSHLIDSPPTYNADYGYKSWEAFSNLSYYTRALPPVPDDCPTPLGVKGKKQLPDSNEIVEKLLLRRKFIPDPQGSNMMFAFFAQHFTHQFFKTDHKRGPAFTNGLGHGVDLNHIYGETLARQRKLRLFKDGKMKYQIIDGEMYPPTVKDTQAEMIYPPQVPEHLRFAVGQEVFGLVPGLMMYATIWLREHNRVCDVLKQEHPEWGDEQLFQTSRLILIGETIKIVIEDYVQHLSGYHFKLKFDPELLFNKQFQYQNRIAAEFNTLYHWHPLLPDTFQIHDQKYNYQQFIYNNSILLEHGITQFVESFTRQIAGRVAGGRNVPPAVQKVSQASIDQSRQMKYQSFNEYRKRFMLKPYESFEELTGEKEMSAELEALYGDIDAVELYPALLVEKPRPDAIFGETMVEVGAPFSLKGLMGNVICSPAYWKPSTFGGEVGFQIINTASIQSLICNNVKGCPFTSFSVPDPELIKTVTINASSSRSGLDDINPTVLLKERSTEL
# Measurement description: IC50 determinations using purified enzymes (TLC assay), COX-2
# Format: biochemical
# Design: made in house; host or cells: Sf9 insect cells
# Experimental context: purified enzyme; read-out: COX-2 IC50
Measured parameter: IC50

compound="COc1ccc2c(c1)c(CC(=O)NCCNC(=O)/C=C(C)/C=C/C=C(C)/C=C/C1=C(C)CCCC1(C)C)c(C)n2C(=O)c1ccc(Cl)cc1 [Compound 27h]" tgt=UniProt:P35354 test_value="107 nM"
compound="COc1ccc2c(c1)c(CC(=O)NCCCCOC(=O)CCC(=O)O[C@H]1c3cc4c(cc3[C@@H](c3cc(OC)c(OC)c(OC)c3)[C@H]3C(=O)OC[C@@H]31)OCO4)c(C)n2C(=O)c1ccc(Cl)cc1 [Compound 27p]" tgt=UniProt:P35354 test_value="147 nM"
compound="COc1ccc2c(c1)c(CC(=O)NCCOC(=O)\\C=C(C)/C=C/C=C(C)/C=C/C1=C(C)CCCC1(C)C)c(C)n2C(=O)c1ccc(Cl)cc1 [Compound 27i]" tgt=UniProt:P35354 test_value="107 nM"

Entry source: patent US7736624B2
